The measured values listed here are drawn from ChEMBL document CHEMBL5725285.

# study system: Tyrosine-protein kinase JAK1 (Homo sapiens)
# Sequence (P23458 whole entry): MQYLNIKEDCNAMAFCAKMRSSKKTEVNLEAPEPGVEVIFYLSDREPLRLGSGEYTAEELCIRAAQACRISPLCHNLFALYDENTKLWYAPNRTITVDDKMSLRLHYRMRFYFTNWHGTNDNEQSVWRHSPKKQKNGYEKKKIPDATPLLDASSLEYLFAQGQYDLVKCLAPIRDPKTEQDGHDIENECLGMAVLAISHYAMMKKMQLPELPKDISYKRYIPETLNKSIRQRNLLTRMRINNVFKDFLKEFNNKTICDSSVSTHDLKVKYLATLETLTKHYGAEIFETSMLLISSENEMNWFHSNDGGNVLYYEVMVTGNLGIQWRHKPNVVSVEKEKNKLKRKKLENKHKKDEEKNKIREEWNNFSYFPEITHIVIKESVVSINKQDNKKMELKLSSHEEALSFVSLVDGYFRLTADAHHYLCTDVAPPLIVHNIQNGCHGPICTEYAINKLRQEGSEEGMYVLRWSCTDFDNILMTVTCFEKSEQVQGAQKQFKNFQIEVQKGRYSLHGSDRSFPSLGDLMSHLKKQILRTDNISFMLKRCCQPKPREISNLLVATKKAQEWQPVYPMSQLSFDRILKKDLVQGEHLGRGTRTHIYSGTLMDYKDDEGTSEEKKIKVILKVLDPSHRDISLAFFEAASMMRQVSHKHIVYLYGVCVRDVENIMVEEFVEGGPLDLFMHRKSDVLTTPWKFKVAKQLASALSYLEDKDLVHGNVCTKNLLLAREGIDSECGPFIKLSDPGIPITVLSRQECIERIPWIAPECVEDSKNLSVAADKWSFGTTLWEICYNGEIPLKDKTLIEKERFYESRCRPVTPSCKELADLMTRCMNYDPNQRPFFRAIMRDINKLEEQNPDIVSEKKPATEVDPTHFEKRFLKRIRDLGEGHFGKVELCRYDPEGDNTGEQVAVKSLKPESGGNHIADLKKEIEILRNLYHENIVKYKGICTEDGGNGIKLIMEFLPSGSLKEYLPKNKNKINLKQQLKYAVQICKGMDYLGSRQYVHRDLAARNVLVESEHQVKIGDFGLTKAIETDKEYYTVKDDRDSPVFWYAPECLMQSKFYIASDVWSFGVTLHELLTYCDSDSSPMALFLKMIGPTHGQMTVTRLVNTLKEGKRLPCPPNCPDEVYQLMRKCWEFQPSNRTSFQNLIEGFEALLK
# experimental details: IC50 values of test compounds was calculated from the data of the test compounds in inhibiting the activity of JAK1 kinase at different concentrations.
pIC50: −log10 of the molar value.
recorded metric: pIC50

1) CN(c1ncnc2[nH]ccc12)[C@H]1C[C@@H]2CN(C(=O)[C@H](O)C(F)(F)F)C[C@@H]2C1 = 7.35

----------
# study system: UniProt:P23458
# experimental details: JAK1 Kinase Assay: TBDIn vitro kinase assays described below can be used to determine the activity of a test compound for inhibiting the activity of JAK1 kinase. The test compounds were dissolved in dimethyl sulfoxide and diluted with water to a serial concentration gradient as required in the experiment. JAK1 substrates (Cell Signaling Technology, Catalog Number: 1305s) and ATP (2 mM) solution …
pIC50: −log10 of the molar value.
recorded metric: pIC50

1) CN(c1ncnc2[nH]ccc12)[C@@H]1C[C@@H]2CCN(C(=O)Nc3nncs3)C[C@@H]2C1 = 7.40
